- Test system: KM20L2 colon
- measurement.description: NCI tumour cell line growth inhibition, 48 h
observation.type: TGI (µM)
The reply should contain only the number, in µM.

Entry under test: O=C1NC(c2cccc3ccccc23)Nc2ccc(O)cc21 (stereo not given) . Its TGI was 113

// next item, TGI requested
Just so you know, measured TGI for `CCC[CH2][Sn]1([CH2]CCC)[O]CC(c2ccccn2)C[O]1` came out at 73.3

---

- Tested on: MALME-3M melanoma
- measurement.description: NCI tumour cell line growth inhibition, 48 h
Where a SMILES comes first, the peptide text is derived from it. [ ]: non-standard residue; d: D form. The star is where a group is joined. Bn2Val = CC(C)[C@@H](C(=O)*)N(Cc1ccccc1)Cc1ccccc1; NH(4-F-benzyl) = Fc1ccc(CN*)cc1; NMeV = CN[C@H](C(=O)O)C(C)C; dNMeA = CN[C@H](C)C(=O)O
observation.type: log10(TGI) (log10 of the value in µM)
Short version: log10 scale, TGI, µM.

Would you please look over these solved cases?
Measured log10(TGI), `COC(=O)Cc1c([C@H]2[C@H](CC(=O)OC)c3ccccc3N2C(=O)C(F)(F)F)[nH]c2ccccc12` : 1.96

Notebook: `COc1cc(Nc2nc3c(N)cc(C(F)(F)F)cc3nc2-c2ccccc2)cc(OC)c1OC` , log10(TGI) read as 1.88

So for `O=C(Nc1ccc(OCc2nnc(-c3ccc(Cl)cc3)o2)c(F)c1)Nc1ccc(Cl)c(Cl)c1` , the logged log10(TGI) turned out to be 0.94

The reported log10(TGI) of the compound COC(=O)C1SC(N(C)c2ccccc2)=NC12c1ccccc1Nc1ccccc12 (centres undefined) was 1.49

# log10(TGI) (compound: `CC(C)=C1C(=O)c2c(Cl)sc(Cl)c2C1=O` ) is 1.65

Briefly, log10(TGI) measured for `COc1ccc(/C=C/C(=O)c2ccc(NC(=O)CSc3nnc(-c4ccc(OC)c(OC)c4)n3-c3ccccc3)cc2)cc1` : 0.54

// sample `Cc1c(C)c(S(=O)(=O)N(CCCCCCN)OCCCN)c(C)c2c1OC(C)(C)CC2` , its log10(TGI) was 0.64

Form field log10(TGI), entry `CC#CC#Cc1cccc(=O)o1` : 1.15

---
Just so you know, measured log10(TGI) for CC(C)[C@H](NC(=O)[C@H](C(C)C)N(Cc1ccccc1)Cc1ccccc1)C(=O)N(C)[C@H](C(=O)N1CCC[C@H]1C(=O)N(C)[C@H](C)C(=O)NCc1ccc(F)cc1)C(C)C (Bn2Val-V[NMeV]P[dNMeA]-{NH(4-F-benzyl)}) came out at 0.97

// `Cc1c2ccccc2c(C)n2c1nc1cc3ccccc3cc12` : log10(TGI) value = 0.42

# compound `Cc1cc2nc3c4cc(C=O)ccc4n(CCN(C)C)c3nc2cc1C` ; its log10(TGI) = 0.44

The measured log10(TGI) associated with O=C1NC(c2cccc3ccccc23)Nc2ccc(O)cc21 (centres undefined) reads 1.84

Noted for CC1(C)C2CCC1(C)[C@H](O)[C@H]2Nc1cc(C(F)(F)F)cc(C(F)(F)F)c1 (some centres undefined) : its log10(TGI) reads 0.96

Please fill in: log10(TGI) reported for `Clc1ccc(Cl)c(NNc2cc(Cl)ccc2Cl)c1` = 0.99

What the record says about `O/N=C(\C(=N/O)Nc1ccc(-c2ccc(NC(=N/O)/C(=N\O)c3ccccc3)cc2)cc1)c1ccccc1` : log10(TGI) is 1.65

Entry C[C@]12CCC3[C@@H](CC[C@@H]4c5nonc5CC[C@]34C)C1CCC2=O (some centres undefined) , log10(TGI) reported as 1.72

# log10(TGI) (compound: `CCCOC(=O)c1ccc2c(c1)[N+](=O)C(C(=O)c1ccccc1)=C(C(F)(F)F)[N+]2=O` ) is 0.56
